experiment: Half life in rat at 400 mg/kg, sc administered as single dose; type: ADME, organism-based; settings: in vivo
Sorting guide: entries reporting half-life beneath 30 days go in the true pile, the rest go in the false pile.

Reference set, count: 5
CC(=O)Nc1ccc(S(=O)(=O)c2ccc(NC(C)=O)cc2)cc1 :: false
CC(=O)N(C)c1ccc(S(=O)(=O)c2ccc(N(C)C(C)=O)cc2)cc1 :: true
CC(=O)Nc1ccc(S(=O)(=O)c2ccc(N(C)C(C)=O)cc2)cc1 :: true
CC(=O)Nc1ccc(S(=O)(=O)c2ccc(/N=C/c3ccc(/C=N/c4ccc(S(=O)(=O)c5ccc(NC(C)=O)cc5)cc4)cc3)cc2)cc1 :: false
CC(=O)Nc1ccc(S(=O)(=O)c2ccc(N)cc2)cc1 :: false

Input: Does the reported half-life of CC(=O)Nc1ccc(S(=O)(=O)c2ccc(NC(C)=O)c(C)c2)cc1 stay below 30 days?
Output: false

----------
system: Staphylococcus aureus; assay: Antimicrobial activity against Staphylococcus aureus ATCC 25923 by broth microdilution assay; format: functional
Consider the following compounds; for each one, report its MIC.
Numbers only, in mg/L.

The cases that follow already have their MIC on record.
N#Cc1ccc(/C=N/NC(=S)Nc2ccc(C(F)(F)F)cc2)cc1 :: 400
FC(F)(F)c1ccc(NC(=S)N/N=C/c2ccc(Br)cc2)cc1 :: 400
O=C(N[C@H](CO)[C@H](O)c1ccc([N+](=O)[O-])cc1)C(Cl)Cl :: 100
FC(F)(F)c1ccc(NC(=S)N/N=C/c2ccc(Cl)cc2)cc1 :: 400
FC(F)(F)c1ccc(/C=N/NC(=S)Nc2ccc(C(F)(F)F)cc2)cc1 :: 400
CN(C)c1ccc(/C=N/NC(=S)Nc2ccc(C(F)(F)F)cc2)cc1 :: 400
Cc1ccc(/C=N/NC(=S)Nc2ccc(C(F)(F)F)cc2)cc1 :: 400
Oc1ccc(/C=N/NC(=S)Nc2ccc(C(F)(F)F)cc2)cc1 :: 400

Batch of 5 compounds: report MIC for each.
1. O=[N+]([O-])c1ccc(/C=N/NC(=S)Nc2ccc(C(F)(F)F)cc2)cc1
2. Fc1ccc(/C=N/NC(=S)Nc2ccc(C(F)(F)F)cc2)cc1
3. CC(C)c1ccc(/C=N/NC(=S)Nc2ccc(C(F)(F)F)cc2)cc1
4. FC(F)(F)c1ccc(NC(=S)N/N=C/c2ccccc2)cc1
5. COc1ccc(/C=N/NC(=S)Nc2ccc(C(F)(F)F)cc2)cc1

Output:
400
100
400
400
400

----------
experiment: Drug concentration in rat blood at 400 mg/kg, sc administered as single dose; assay type: ADME, organism-based; conditions: in vivo
observable: Drug uptake (µg/mL)
Numbers only, in µg/mL.

The cases that follow already have their Drug uptake on record.
CC(=O)Nc1ccc(S(=O)(=O)c2ccc(NC(C)=O)cc2)cc1 :: 0.2
CC(=O)Nc1ccc(S(=O)(=O)c2ccc(N)cc2)cc1 :: 1.3
CC(=O)Nc1ccc(S(=O)(=O)c2ccc(/N=C/c3ccc(/C=N/c4ccc(S(=O)(=O)c5ccc(NC(C)=O)cc5)cc4)cc3)cc2)cc1 :: 0.4
CC(=O)Nc1ccc(S(=O)(=O)c2ccc(NC(C)=O)c(C)c2)cc1 :: 0.7

# Drug uptake of Nc1ccc(S(=O)(=O)c2ccc(N)cc2)cc1 = 13.8
